biological target: 5-hydroxytryptamine receptor 6 (Homo sapiens); assay: Displacement of [3H]-LSD from recombinant human 5-HT6 receptor expressed in HEK293 cells after 60 mins
Sequence (P50406 whole entry): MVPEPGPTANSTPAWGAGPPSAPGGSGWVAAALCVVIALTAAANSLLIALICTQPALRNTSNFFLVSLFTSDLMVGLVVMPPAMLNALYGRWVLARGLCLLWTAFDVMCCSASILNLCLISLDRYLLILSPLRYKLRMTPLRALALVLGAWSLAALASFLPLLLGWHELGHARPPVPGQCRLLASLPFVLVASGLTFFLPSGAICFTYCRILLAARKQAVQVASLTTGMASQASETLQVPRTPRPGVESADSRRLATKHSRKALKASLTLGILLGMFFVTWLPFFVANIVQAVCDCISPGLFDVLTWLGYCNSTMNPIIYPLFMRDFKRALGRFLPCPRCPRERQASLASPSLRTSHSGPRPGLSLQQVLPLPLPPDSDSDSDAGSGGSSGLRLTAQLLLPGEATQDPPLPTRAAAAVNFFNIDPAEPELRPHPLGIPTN
measurement.kind: Ki (nM)

1: CC(C)c1ccc(S(=O)(=O)n2cc(CN3CCN(C)CC3)c3cc(F)ccc32)cc1.Cl.Cl
2: CSc1ccc2c(c1)c(CN1CCN(C)CC1)cn2S(=O)(=O)c1ccccc1Br
query: // pick larger Ki from pair: 1 vs 2 State your choice using its label.
result: 2

====

assay: Clearance in Wistar rat at 10 mg/kg, iv by LC-MS/MS analysis; type: ADME, organism-based; conditions: in vivo
measurement.kind: clearance (mL/min/kg)

> print(dat)
                                        smi  numeric.readout
1  COc1ccc2c(c1)c(CN1CCN(C)CC1)cn2S(=O)(=O)c1ccc(F)cc1.CS(=O)(=O)O.CS(=O)(=O)O               92
2  COc1ccc2c(c1)c(CN1CCN(C)CC1)cn2S(=O)(=O)c1ccccc1Br.CS(=O)(=O)O.O               53
3  CN1CCN(Cc2cn(S(=O)(=O)c3ccc(F)cc3)c3ccccc23)CC1               75
4  CC(C)c1ccc(S(=O)(=O)n2cc(CN3CCN(C)CC3)c3cc(F)ccc32)cc1.Cl.Cl             19.5
5  COc1cccc2c1c(CN1CCN(C)CC1)cn2S(=O)(=O)c1ccc(C(C)C)cc1.Cl.Cl               65

a: CN1CCN(Cc2cn(S(=O)(=O)c3ccccc3)c3ccccc23)CC1.Cl.Cl
b: COc1ccc2c(c1)c(CN1CCN(C)CC1)cn2S(=O)(=O)c1ccc(C(C)C)cc1.CS(=O)(=O)O.CS(=O)(=O)O
query: Smaller clearance value, a vs b ? State your choice using its label.
result: a
